- measuredTarget: calmodulin (Homo sapiens, UniProt P0DP23)
- test: NMR titration
No end group written: not given here.
recordedMetric: Kd (mM)

(a) HFGKTGSSGPLQ (not fully specified) [CEACAM1 short form peptide SFWT]
(b) HFGKTGRASDQR (not fully specified) [CEACAM1 long form peptide LFWT]
Hi there, can you help? I need to know whether a or b has lower measured Kd. Indicate your choice by writing its label. b

Entry source: paper PMC6524640
